Data origin: ChEMBL document CHEMBL4411318

# measurement.notes: in vitro
# setup.conditions: human, liver microsomes
# Description: Half life in human liver microsomes in presence of NADPH regenerating system by LC/MS/MS analysis
metric: half-life

Prompt: Supply half-life value. Item: CC(C)OC(=O)[C@H](C)N[P@@](=O)(OC[C@H]1O[C@@H](n2ccc(=O)[nH]c2=O)C(F)(Br)C1O)Oc1ccccc1 (single isomer, unassigned)
Completion: 18.4 min

Prompt: Supply half-life value. Item: CC(C)OC(=O)[C@H](C)N[P@](=O)(OC[C@H]1O[C@@H](n2ccc(=O)[nH]c2=O)[C@@](F)(Br)[C@@H]1O)Oc1ccccc1 (single isomer, unassigned)
Completion: 19.7 min

----------
# measurement.notes: Stability in Sprague-Dawley rat plasma assessed as compound remaining at 2 uM after 2 hrs by LC-MS/MS analysis
# Type: ADME, cell-free
# setup.conditions: read-out: Stability
metric: remaining at 2 h, 2 µM (%)
Report as a plain number; the unit % is understood.

Prompt: Supply remaining at 2 h, 2 µM value. Item: CC(C)OC(=O)[C@H](C)NP(=O)(OC[C@H]1O[C@@H](n2ccc(=O)[nH]c2=O)[C@](F)(Br)[C@H]1O)Oc1ccccc1 (mixture of isomers)
Completion: 0.2
